Hey, just so you know, these numbers are from patent US4656166A.

# System: Escherichia coli SOL 90
# Test Protocol: MIC, in vitro dilution method, Escherichia coli SOL 90 (Table III)
# Type: cell-based
# Measurement Conditions: SOL90; Escherichia coli SOL 90; dilution method; read-out: MIC
# Text: The products of the invention have been studied as regards their pharmacological properties and, more especially, bacteriostatic action. This has been determined in vitro by the dilution method, and the study was on Gram negative strains. Results, expressed in minimum inhibiting concentrations (MIC-- μg/ml), are collected in the following table (Table III).
Readout Kind: MIC (µg/mL)

[
  {
    "Compound": "CC(C)(ON=C(C(=O)NC1C(=O)N2C(C(=O)O)=C(CSC(=O)c3cccc(NC(=O)CN)c3)C[S+]([O-])C12)c1csc(N)n1)C(=O)O (stereo not drawn)",
    "U": "µg/mL",
    "Data Value": 2
  },
  {
    "Compound": "CSCC[C@H](N)C(=O)OCC1=C(C(=O)O)N2C(=O)C(NC(=O)/C(=N\\OC(C)(C)C(=O)O)c3csc(N)n3)C2[S+]([O-])C1 (stereo partly drawn)",
    "U": "µg/mL",
    "Data Value": 2
  },
  {
    "Compound": "Cc1ccc(CN)c(C)c1C(=O)OCC1=C(C(=O)O)N2C(=O)C(NC(=O)/C(=N\\OC(C)(C)C(=O)O)c3csc(N)n3)C2[S+]([O-])C1 (stereo not drawn)",
    "U": "µg/mL",
    "Data Value": 0.5
  },
  {
    "Compound": "CC(C)(O/N=C(\\C(=O)NC1C(=O)N2C(C(=O)O)=C(COC(=O)C3CCNCC3)C[S+]([O-])C12)c1csc(N)n1)C(=O)O (stereo not drawn)",
    "U": "µg/mL",
    "Data Value": 0.25
  },
  {
    "Compound": "CC(N)C(=O)Nc1ccc(C(=O)OCC2=C(C(=O)O)N3C(=O)C(NC(=O)C(=NOC4(C(=O)O)CCC4)c4csc(N)n4)C3[S+]([O-])C2)cc1 (stereo not drawn)",
    "U": "µg/mL",
    "Data Value": 0.125
  },
  {
    "Compound": "CC(N)CCC(=O)OCC1=C(C(=O)O)N2C(=O)C(NC(=O)C(=NOC(C)(C)C(=O)O)c3csc(N)n3)C2[S+]([O-])C1 (stereo not drawn)",
    "U": "µg/mL",
    "Data Value": 0.25
  }
]

----------
# Tested on: Klebsiella RO 30
# Test Protocol: MIC, in vitro dilution method, Klebsiella RO 30 (Table III)
# Type: cell-based
# Measurement Conditions: Klebsiella, RO30
// reported MIC for each item listed

[
  {
    "Molecule": "Cc1c(CN)cccc1C(=O)OCC1=C(C(=O)O)N2C(=O)C(NC(=O)/C(=N\\OC(C)(C)C(=O)O)c3csc(N)n3)C2[S+]([O-])C1 (stereo not shown) [42 456]",
    "MIC": "≤ 0.125 µg/mL"
  },
  {
    "Molecule": "NCC(=O)Nc1ccc(C(=O)OCC2=C(C(=O)O)N3C(=O)C(NC(=O)C(=NOC4(C(=O)O)CCC4)c4csc(N)n4)C3[S+]([O-])C2)cc1 (stereo not shown) [42 548]",
    "MIC": "0.125 µg/mL"
  },
  {
    "Molecule": "CNCc1ccc(C(=O)OCC2=C(C(=O)O)N3C(=O)C(NC(=O)/C(=N\\OC(C)(C)C(=O)O)c4csc(N)n4)C3[S+]([O-])C2)cc1 (stereo not shown) [42 395]",
    "MIC": "≤ 0.125 µg/mL"
  },
  {
    "Molecule": "CC(C)(O/N=C(\\C(=O)NC1C(=O)N2C(C(=O)O)=C(COC(=O)c3cccc(CN)c3)C[S+]([O-])C12)c1csc(N)n1)C(=O)O (stereo not shown) [42 320]",
    "MIC": "≤ 0.125 µg/mL"
  }
]

----------
# System: Enterobacter RO 154
# Test Protocol: MIC, in vitro dilution method, Enterobacter RO 154 (Table III)
# Type: cell-based
# Measurement Conditions: RO154; Enterobacter RO 154; dilution method; read-out: MIC

[
  {
    "Molecule": "CC(C)(ON=C(C(=O)NC1C(=O)N2C(C(=O)O)=C(COC(=O)C3CCCCC3CN)C[S+]([O-])C12)c1csc(N)n1)C(=O)O (stereo not drawn)",
    "MIC": "0.25 mg/L"
  },
  {
    "Molecule": "CC(O/N=C(\\C(=O)NC1C(=O)N2C(C(=O)O)=C(COC(=O)[C@H]3CC[C@H](CN)CC3)C[S+]([O-])C12)c1csc(N)n1)C(=O)O (stereo partly drawn)",
    "MIC": "≤ 0.12 mg/L"
  },
  {
    "Molecule": "NCCC(=O)Nc1ccc(C(=O)OCC2=C(C(=O)O)N3C(=O)C(NC(=O)C(=NOC4(C(=O)O)CCC4)c4csc(N)n4)C3[S+]([O-])C2)cc1 (stereo not drawn)",
    "MIC": "8 mg/L"
  },
  {
    "Molecule": "Cc1nc(NC(=O)CN)sc1C(=O)OCC1=C(C(=O)O)N2C(=O)C(NC(=O)C(=NOC(C)(C)C(=O)O)c3csc(N)n3)C2[S+]([O-])C1 (stereo not drawn)",
    "MIC": "8 mg/L"
  },
  {
    "Molecule": "CC(C)(O/N=C(\\C(=O)NC1C(=O)N2C(C(=O)O)=C(COC(=O)c3cccc(NC(=O)CN)c3)C[S+]([O-])C12)c1csc(N)n1)C(=O)O (stereo not drawn)",
    "MIC": "0.25 mg/L"
  },
  {
    "Molecule": "NCc1cccc(C(=O)OCC2=C(C(=O)O)N3C(=O)C(NC(=O)/C(=N\\OC4(C(=O)O)CCC4)c4csc(N)n4)C3[S+]([O-])C2)c1 (stereo not drawn)",
    "MIC": "≤ 0.125 mg/L"
  },
  {
    "Molecule": "CC(C)(ON=C(C(=O)NC1C(=O)N2C(C(=O)O)=C(COC(=O)C3CCN(C(=O)CN)CC3)C[S+]([O-])C12)c1csc(N)n1)C(=O)O (stereo not drawn)",
    "MIC": "0.25 mg/L"
  },
  {
    "Molecule": "Cc1c(NC(=O)CN)cccc1C(=O)OCC1=C(C(=O)O)N2C(=O)C(NC(=O)C(=NOC(C)(C)C(=O)O)c3csc(N)n3)C2[S+]([O-])C1 (stereo not drawn)",
    "MIC": "8 mg/L"
  },
  {
    "Molecule": "CC(N)CCC(=O)OCC1=C(C(=O)O)N2C(=O)C(NC(=O)C(=NOC(C)(C)C(=O)O)c3csc(N)n3)C2[S+]([O-])C1 (stereo not drawn)",
    "MIC": "2 mg/L"
  },
  {
    "Molecule": "NC[C@H]1CC[C@H](C(=O)OCC2=C(C(=O)O)N3C(=O)C(NC(=O)/C(=N\\OCC(=O)O)c4csc(N)n4)C3[S+]([O-])C2)CC1 (stereo partly drawn)",
    "MIC": "≤ 0.12 mg/L"
  },
  {
    "Molecule": "CC(C)(ON=C(C(=O)NC1C(=O)N2C(C(=O)O)=C(COC(=O)c3ccc(NC(=O)C4CCNCC4)cc3)C[S+]([O-])C12)c1csc(N)n1)C(=O)O (stereo not drawn)",
    "MIC": "8 mg/L"
  },
  {
    "Molecule": "Nc1nc(/C(=N/OC2(C(=O)O)CCC2)C(=O)NC2C(=O)N3C(C(=O)O)=C(COC(=O)CC4CCNCC4)C[S+]([O-])C23)cs1 (stereo not drawn)",
    "MIC": "≤ 0.125 mg/L"
  },
  {
    "Molecule": "CC(C)(O/N=C(\\C(=O)NC1C(=O)N2C(C(=O)O)=C(COC(=O)CCCN)C[S+]([O-])C12)c1csc(N)n1)C(=O)O (stereo not drawn)",
    "MIC": "2 mg/L"
  },
  {
    "Molecule": "CC(C)(O/N=C(\\C(=O)NC1C(=O)N2C(C(=O)O)=C(COC(=O)CC3CCCCN3)C[S+]([O-])C12)c1csc(N)n1)C(=O)O (stereo not drawn)",
    "MIC": "0.25 mg/L"
  },
  {
    "Molecule": "CC(C)(ON=C(C(=O)NC1C(=O)N2C(C(=O)O)=C(COC(=O)c3ccc(CN)c(Br)c3)C[S+]([O-])C12)c1csc(N)n1)C(=O)O (stereo not drawn)",
    "MIC": "2 mg/L"
  },
  {
    "Molecule": "C[C@@H](N)C(=O)OCC1=C(C(=O)O)N2C(=O)C(NC(=O)/C(=N\\OC(C)(C)C(=O)O)c3csc(N)n3)C2[S+]([O-])C1 (stereo partly drawn)",
    "MIC": "8 mg/L"
  },
  {
    "Molecule": "CC(C)(O/N=C(\\C(=O)NC1C(=O)N2C(C(=O)O)=C(COC(=O)[C@@H](N)Cc3c[nH]cn3)C[S+]([O-])C12)c1csc(N)n1)C(=O)O (stereo partly drawn)",
    "MIC": "8 mg/L"
  },
  {
    "Molecule": "CC(C)NCc1ccc(C(=O)OCC2=C(C(=O)O)N3C(=O)C(NC(=O)/C(=N\\OC(C)(C)C(=O)O)c4csc(N)n4)C3[S+]([O-])C2)cc1 (stereo not drawn)",
    "MIC": "≤ 0.125 mg/L"
  },
  {
    "Molecule": "CC(C)(O/N=C(\\C(=O)NC1C(=O)N2C(C(=O)O)=C(COC(=O)C3(N)CCCCC3)C[S+]([O-])C12)c1csc(N)n1)C(=O)O (stereo not drawn)",
    "MIC": "8 mg/L"
  },
  {
    "Molecule": "CC(C)(ON=C(C(=O)NC1C(=O)N2C(C(=O)O)=C(COC(=O)c3cccc(NC(=O)CCCN)c3)C[S+]([O-])C12)c1csc(N)n1)C(=O)O (stereo not drawn)",
    "MIC": "4 mg/L"
  },
  {
    "Molecule": "Cc1c(CN)cccc1C(=O)SCC1=C(C(=O)O)N2C(=O)C(NC(=O)C(=NOC3(C(=O)O)CCC3)c3csc(N)n3)C2[S+]([O-])C1 (stereo not drawn)",
    "MIC": "0.5 mg/L"
  },
  {
    "Molecule": "Cc1cc(C(=O)OCC2=C(C(=O)O)N3C(=O)C(NC(=O)/C(=N\\OC(C)(C)C(=O)O)c4csc(N)n4)C3[S+]([O-])C2)ccc1CN (stereo not drawn)",
    "MIC": "≤ 0.125 mg/L"
  },
  {
    "Molecule": "COc1cc(C(=O)OCC2=C(C(=O)O)N3C(=O)C(NC(=O)/C(=N\\OC(C)(C)C(=O)O)c4csc(N)n4)C3[S+]([O-])C2)ccc1CN (stereo not drawn)",
    "MIC": "≤ 0.125 mg/L"
  },
  {
    "Molecule": "NCC(=O)Nc1nc(C(=O)OCC2=C(C(=O)O)N3C(=O)C(NC(=O)C(=NOC4(C(=O)O)CCC4)c4csc(N)n4)C3[S+]([O-])C2)cs1 (stereo not drawn)",
    "MIC": "0.5 mg/L"
  }
]
